Listed here: items and their measured T/C.
system: Sarcoma-180; assay: Antitumor activity against mouse Sarcoma 180 cells allografted in CD-1 mouse assessed as increase in average survival time at 40 mg/kg, ip qd for 6 consecutive days starting 24 hrs post implantation measured relative to control; format: functional; conditions: route intraperitoneal

- Substance Smiles: "O=S(=O)(N/N=C/c1cccn[n+]1[O-])c1ccccc1"
  T/C: "194%"
- Substance Smiles: "Cc1ccc(S(=O)(=O)N/N=C/c2cccn[n+]2[O-])cc1"
  T/C: "164%"
- Substance Smiles: "O=S(=O)(N/N=C/c1cccc[n+]1[O-])c1ccccc1"
  T/C: "235%"
- Substance Smiles: "COc1ccc(S(=O)(=O)N/N=C/c2cccn[n+]2[O-])cc1"
  T/C: "231%"
- Substance Smiles: "Cc1ccc(S(=O)(=O)N/N=C/c2ccnc[n+]2[O-])cc1"
  T/C: "115%"

# T/C (compound: `O=S(=O)(N/N=C/c1ccnc[n+]1[O-])c1ccccc1` ) is 89%

# T/C (compound: `COc1ccc(S(=O)(=O)N/N=C/c2ccnc[n+]2[O-])cc1` ) is 96%
